In this section, each of the compounds is paired with its reported log10(IC50).
EXPERIMENTAL_TARGET: MMP-13 (Homo sapiens, UniProt P45452)
Construct: catalytic domain (^104Tyr˜^267Gly) was amplified with RT-PCR; His-tag; enterokinase digestion-site; made in house; host or cells: Escherichia coli
PROTOCOL_TEXT: Assay for inhibitory activities on MMPs (fluorogenic peptide substrate), MMP-13
Format: biochemical
EXPERIMENTAL_CONTEXT: catalytic domain 104Tyr-267Gly; substrate MOCAc-Pro-Leu-Gly-Leu-A2Pr(DNP)-Ala-Arg-NH2
ASSAY_ENDPOINT: log10(IC50) (log10 of the value in nM)

# COMPOUND, NUMERIC_VALUE
records = [
    ("COc1ccc(-c2cnc(-c3ccc(S(=O)(=O)N[C@H](Cc4ccccc4)C(=O)O)cc3)s2)cc1 [Compound B-1]", 0.47),
    ("C[C@@H](NS(=O)(=O)c1ccc(-c2ncc(-c3ccc(Br)cc3)s2)cc1)C(=O)O [Compound B-29]", 0.41),
    ("C[C@@H](NS(=O)(=O)c1ccc(-c2ncc(-c3ccc(Br)cc3)o2)cc1)C(=O)O [Compound A-10]", 1.77),
    ("CC(C)C[C@@H](NS(=O)(=O)c1ccc(-c2ncc(-c3ccc(Cl)cc3)o2)cc1)C(=O)O [Compound A-30]", 2.35),
    ("C[C@@H](NS(=O)(=O)c1ccc(-c2ncc(-c3ccc(F)cc3)o2)cc1)C(=O)O [Compound A-6]", 2.37),
    ("CC(C)[C@H](NS(=O)(=O)c1ccc(-c2ncc(-c3ccc(F)cc3)s2)cc1)C(=O)O [Compound B-9]", 1.12),
    ("O=C(O)[C@H](Cc1ccccc1)NS(=O)(=O)c1ccc(-c2ncc(-c3ccc(Cl)cc3)s2)cc1 [Compound B-14]", 1.04),
    ("O=C(O)[C@@H](Cc1ccccc1)NS(=O)(=O)c1ccc(-c2ncc(-c3ccc(F)cc3)o2)cc1 [Compound A-19]", 2.05),
    ("COc1ccc(-c2cnc(-c3ccc(S(=O)(=O)N[C@@H](C)C(=O)O)cc3)o2)cc1 [Compound A-9]", 2.64),
    ("C[C@@H](NS(=O)(=O)c1ccc(-c2ncc(-c3ccccc3)s2)cc1)C(=O)O [Compound B-21]", 1.34),
    ("O=C(O)[C@@H](Cc1ccccc1)NS(=O)(=O)c1ccc(-c2ncc(-c3ccc4ccccc4c3)o2)cc1 [Compound A-1]", 1.18),
    ("C[C@@H](NS(=O)(=O)c1ccc(-c2ncc(-c3ccc4ccccc4c3)o2)cc1)C(=O)O [Compound A-46]", 1.28),
    ("O=C(O)[C@@H](Cc1ccccc1)NS(=O)(=O)c1ccc(-c2ncc(-c3ccc(Cl)cc3)s2)cc1 [Compound B-13]", 0.71),
    ("CC(C)[C@H](NS(=O)(=O)c1ccc(-c2ncc(-c3ccc(Cl)cc3)o2)cc1)C(=O)O [Compound A-24]", 2.83),
    ("CC(C)[C@@H](NS(=O)(=O)c1ccc(-c2ncc(-c3ccc(F)cc3)s2)cc1)C(=O)O [Compound B-8]", 0.98),
    ("CC(C)C[C@@H](NS(=O)(=O)c1ccc(-c2ncc(-c3ccc(Cl)cc3)s2)cc1)C(=O)O [Compound B-31]", 1.51),
    ("CC(C)[C@@H](NS(=O)(=O)c1ccc(-c2ncc(-c3ccccc3)s2)cc1)C(=O)O [Compound B-2]", 1.16),
    ("CC(C)[C@@H](NS(=O)(=O)c1ccc(-c2ncc(-c3ccc(Cl)cc3)s2)cc1)C(=O)O [Compound B-4]", 0.74),
    ("COc1ccc(-c2cnc(-c3ccc(S(=O)(=O)N[C@H](CC(C)C)C(=O)O)cc3)o2)cc1 [Compound A-28]", 1.65),
    ("CC(C)[C@H](NS(=O)(=O)c1ccc(-c2ncc(-c3ccccc3)s2)cc1)C(=O)O [Compound B-3]", 1.18),
    ("CC(C)[C@@H](NS(=O)(=O)c1ccc(-c2ncc(-c3ccc4ccccc4c3)o2)cc1)C(=O)O [Compound A-50]", 1.08),
    ("CC(C)[C@H](NS(=O)(=O)c1ccc(-c2ncc(-c3ccccc3)o2)cc1)C(=O)O [Compound A-22]", 0.73),
    ("O=C(O)[C@@H](Cc1c[nH]c2ccccc12)NS(=O)(=O)c1ccc(-c2ncc(-c3ccc(Cl)cc3)s2)cc1 [Compound B-51]", 0.42),
    ("CC(C)[C@H](NS(=O)(=O)c1ccc(-c2ncc(-c3ccc(Cl)cc3)s2)cc1)C(=O)O [Compound B-5]", 0.79),
    ("O=C(O)[C@H](Cc1ccccc1)NS(=O)(=O)c1ccc(-c2ncc(-c3ccccc3)s2)cc1 [Compound B-12]", 0.97),
    ("COc1ccc(-c2cnc(-c3ccc(S(=O)(=O)N[C@H](C)C(=O)O)cc3)o2)cc1 [Compound A-8]", 1.35),
    ("CC(C)[C@@H](NS(=O)(=O)c1ccc(-c2ncc(-c3ccc(F)cc3)o2)cc1)C(=O)O [Compound A-25]", 2.15),
]
